# Subject Of Test: Integrin alpha-V/beta-5 (Homo sapiens, UniProt P06756+P18084)
# Sequence (P06756 31-889 limits assumed): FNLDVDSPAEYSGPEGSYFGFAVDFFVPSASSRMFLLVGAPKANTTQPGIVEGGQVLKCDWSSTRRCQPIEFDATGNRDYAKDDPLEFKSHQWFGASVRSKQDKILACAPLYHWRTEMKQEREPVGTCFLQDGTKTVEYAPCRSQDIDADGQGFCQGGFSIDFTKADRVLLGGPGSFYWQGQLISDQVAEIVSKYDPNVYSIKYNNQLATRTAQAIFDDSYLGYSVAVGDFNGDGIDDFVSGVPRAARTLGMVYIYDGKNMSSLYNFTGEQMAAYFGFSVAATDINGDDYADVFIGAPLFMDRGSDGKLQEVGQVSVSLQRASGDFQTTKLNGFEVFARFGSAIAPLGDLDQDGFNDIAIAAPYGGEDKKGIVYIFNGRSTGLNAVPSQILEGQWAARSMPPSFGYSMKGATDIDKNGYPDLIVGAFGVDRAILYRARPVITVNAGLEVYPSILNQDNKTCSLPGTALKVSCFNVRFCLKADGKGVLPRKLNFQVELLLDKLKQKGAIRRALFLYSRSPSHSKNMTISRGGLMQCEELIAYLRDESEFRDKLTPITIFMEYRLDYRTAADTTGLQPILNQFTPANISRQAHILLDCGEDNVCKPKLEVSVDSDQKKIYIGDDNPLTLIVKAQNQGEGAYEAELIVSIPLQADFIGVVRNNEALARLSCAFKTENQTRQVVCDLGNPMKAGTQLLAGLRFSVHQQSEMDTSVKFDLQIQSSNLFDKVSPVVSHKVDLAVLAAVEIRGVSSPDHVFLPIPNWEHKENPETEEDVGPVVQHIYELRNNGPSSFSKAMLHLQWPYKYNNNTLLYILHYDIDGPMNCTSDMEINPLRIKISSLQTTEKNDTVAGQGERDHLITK
# Sequence (P06756 891-1048 limits assumed): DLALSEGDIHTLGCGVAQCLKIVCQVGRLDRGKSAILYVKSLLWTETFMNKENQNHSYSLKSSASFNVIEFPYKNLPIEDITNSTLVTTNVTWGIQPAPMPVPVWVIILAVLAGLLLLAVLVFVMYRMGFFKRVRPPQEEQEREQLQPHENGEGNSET
# Sequence (P18084 24-799 limits assumed): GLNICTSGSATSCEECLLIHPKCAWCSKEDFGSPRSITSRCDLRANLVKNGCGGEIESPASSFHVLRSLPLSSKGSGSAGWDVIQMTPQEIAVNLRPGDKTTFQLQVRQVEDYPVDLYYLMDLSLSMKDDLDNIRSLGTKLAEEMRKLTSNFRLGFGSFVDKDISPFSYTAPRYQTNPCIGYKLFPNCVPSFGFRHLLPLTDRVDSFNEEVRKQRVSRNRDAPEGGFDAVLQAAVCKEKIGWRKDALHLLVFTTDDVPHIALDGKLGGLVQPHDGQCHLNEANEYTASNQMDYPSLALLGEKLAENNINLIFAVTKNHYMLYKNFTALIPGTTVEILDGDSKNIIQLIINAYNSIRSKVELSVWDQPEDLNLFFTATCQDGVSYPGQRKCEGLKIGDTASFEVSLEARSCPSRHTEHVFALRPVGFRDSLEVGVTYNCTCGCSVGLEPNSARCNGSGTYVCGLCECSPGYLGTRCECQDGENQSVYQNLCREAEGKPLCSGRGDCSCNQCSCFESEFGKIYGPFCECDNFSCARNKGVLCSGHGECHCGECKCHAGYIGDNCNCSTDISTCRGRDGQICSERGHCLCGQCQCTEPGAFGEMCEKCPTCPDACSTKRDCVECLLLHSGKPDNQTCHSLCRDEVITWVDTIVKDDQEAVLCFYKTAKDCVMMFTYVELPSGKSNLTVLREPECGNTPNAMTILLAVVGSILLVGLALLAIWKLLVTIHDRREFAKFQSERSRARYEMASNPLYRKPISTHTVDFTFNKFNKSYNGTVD
# Assay Overview: Inhibition of Integrin alphav-beta5 receptor expressed in HEK293 cell line
Measured Quantity: pIC50
Quick note: pIC50 means taking -log10 of the concentration in moles per liter.

Prompt: Please indicate pIC50 recorded for CNc1cccc(CCCc2noc(CC(CC(=O)O)c3ccc4c(c3)OCO4)n2)n1 (stereo not drawn)
Response: 7.80

Prompt: Please indicate pIC50 recorded for O=C(O)CC(Cc1nc(CCCc2ccc3c(n2)NCCC3)no1)c1cccnc1 (stereo not drawn)
Response: 8.48

Prompt: Please indicate pIC50 recorded for O=C(O)C[C@H](Cc1nc(CCCCNc2cc(N3CCSCC3)ccn2)no1)c1ccc2c(c1)OCO2
Response: 8.54

Prompt: Please indicate pIC50 recorded for O=C(O)CC(Cc1nc(CCCc2ccc3c(n2)NCCC3)no1)c1cnc(C2CC2)s1 (stereo not drawn)
Response: 8.92
